Data origin, for the record: patent US11613531B2

Reported values of IC50 for individual entries
- test target: Recombinant ROCK2 (amino acids 1-552) (Homo sapiens (Human), UniProt O75116)
- Sequence (O75116 1-552): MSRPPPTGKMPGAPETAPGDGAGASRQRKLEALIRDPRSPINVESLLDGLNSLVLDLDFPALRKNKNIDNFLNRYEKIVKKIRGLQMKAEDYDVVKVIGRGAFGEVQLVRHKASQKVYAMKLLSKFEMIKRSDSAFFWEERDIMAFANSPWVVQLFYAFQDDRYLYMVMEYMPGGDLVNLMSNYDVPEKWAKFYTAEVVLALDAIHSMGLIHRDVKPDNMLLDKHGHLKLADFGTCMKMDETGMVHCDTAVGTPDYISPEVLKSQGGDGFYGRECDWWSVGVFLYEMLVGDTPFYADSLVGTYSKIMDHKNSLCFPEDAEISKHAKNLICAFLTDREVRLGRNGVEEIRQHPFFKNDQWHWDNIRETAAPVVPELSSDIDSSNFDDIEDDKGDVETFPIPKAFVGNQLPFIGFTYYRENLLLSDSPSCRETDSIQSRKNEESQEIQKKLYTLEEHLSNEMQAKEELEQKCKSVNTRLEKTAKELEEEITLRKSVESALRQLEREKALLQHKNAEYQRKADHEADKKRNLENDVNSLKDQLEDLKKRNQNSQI
- assay method text: Z′-Lyte kinase assay, ROCK2
- Assay type: biochemical
value type: IC50 (nM)

• c1cc(Nc2ccc3[nH]ncc3c2)nc(N2CC[C@@H]3NC[C@@H]3C2)n1 = 12
• c1cc2[nH]ncc2cc1Nc1nc(N2C3CNCC2C3)ncc1C1CC1 = 15
• COc1nc(N2C3CCC2CNC3)nc(Nc2ccc3[nH]ncc3c2)c1Cl = 8
• FC(F)(F)c1cnc(N2C3CNCC2C3)nc1Nc1ccc2[nH]ncc2c1 = 17
• c1cc2[nH]ncc2cc1Nc1nc(N2C3CCC2CNC3)nc2c1COC2 = 6.6
